Here the recorded growth is given for each entry.
tested on: EKVX NSCLC; test: NCI-60 one-dose screen, 48 h (100 = growth as untreated, 0 = no growth, -100 = all killed); details: 10 µM unless noted
The panel holds about 83,000 compounds, 20% with a hit somewhere; the sample as a whole holds those more often.
Use % as the unit, but write only the number.

Solved entries (count: 3):
Nc1ncnc2c1ccn2-c1cccc(NC(=O)c2ccc(N3CCOCC3)c(C(F)(F)F)c2)c1 | 56
CC(=O)OC(C(=O)c1ccccc1)c1ccccc1 (centres undefined) | 109
COCCOc1cnc2ccn([C@H](C)c3nnc4c(F)cc(-c5cnn(C)c5)cn34)c(=O)c2c1 | 96

Entry CC(=O)OCCC/C(=C\c1ccc2ccccc2c1)[N+](=O)[O-] under EKVX NSCLC had growth of 42.1

* * *

system: A549/ATCC NSCLC; assay: NCI-60 one-dose screen, 48 h; conditions: 10 µM unless noted
This is part of a sample that, as a whole, favours compounds with a hit. Of some 83,000 tested, about 20% had one in any assay. Active and inactive are the calls of the source. How the source made its calls: active means growth percent below 10; inactive means the rest.
Outcome (select one): 1 (active), -1 (inactive)

Example cases with answers are listed next.
Cc1cc2c(F)c(Oc3ncnn4cc(OC[C@@H](C)OC(=O)[C@H](C)N)c(C)c34)ccc2[nH]1 | -1
Cc1ccccc1Nc1nc2nonc2nc1Nc1cccc(C)c1C | -1
COc1ccc(Br)cc1NC(=O)Nc1cccc2c1ccn2Cc1ccnc(N)c1 | -1
C/C=C/C=N/NC(=S)Nc1ccccc1 | -1
Nc1c(C(=O)c2ccccc2)sc2nc(-c3cccs3)cc(-c3cccs3)c12 | -1

We next turn to a different compound, shown below.
# fetch the recorded call for Cc1ncc(-c2ccnc(Nc3ccc(S(C)(=O)=O)cc3)n2)n1C(C)C here
1

* * *

test system: UACC-257 melanoma; experiment: NCI-60 one-dose screen, 48 h (100 = growth as untreated, 0 = no growth, -100 = all killed); settings: 10 µM unless noted
About 83,000 compounds went through this panel and 20% of them were active in at least one assay; those are over-represented in the sample as a whole.
Note to self: use true only for growth readings below 40%; a reading exactly at 40% still gets false.

Example cases with answers are listed next.
C/C(=C(/c1ccc(Cl)cc1)c1ccc(OCCN2CCCCC2)cc1)c1ccccc1 | false
CO[C@H](C(=O)N[C@@H](CCCCNC(=O)OCc1ccccc1)C(=O)OC(C)(C)C)[C@@H]1Cc2cc3cc(OC4CC(OC5CC(O)C(O)C(C)O5)C(O)C(C)O4)c(C)c(O)c3c(O)c2C(=O)[C@H]1OC1CC(OC2CC(OC3CC(C)(O)C(O)C(C)O3)C(O)C(C)O2)C(O)C(C)O1 (some centres not stated) | true
C/C(=C(/c1ccc(Cl)cc1)c1ccc(OCCN2CCCC2)cc1)c1ccccc1 | false
O=S1(=O)OC(c2cc(Cl)c(O)c(Br)c2)(c2cc(Cl)c(O)c(Br)c2)c2ccccc21 | false
O=C1NC(=O)C(c2cnc3ccccn23)=C1c1cn2c3c(cc(F)cc13)CN(C(=O)N1CCCCC1)CC2 | false

Given C=CCN1C(=O)c2cccc3c(-c4ccc5c(c4)ncn5C4CCCCC4)ccc(c23)C1=O , is recorded growth strictly lower than 40%?
false

Given COC(=O)c1ccc2c(C(=Nc3ccc(N(C)C(=O)CN4CCN(C)CC4)cc3)c3ccccc3)c(O)[nH]c2c1 , is recorded growth strictly lower than 40%?
true

Given COC(=O)[C@@H](NC(=O)[C@@H](OC)[C@@H]1Cc2cc3cc(OC4CC(OC5CC(O)C(O)C(C)O5)C(O)C(C)O4)c(C)c(O)c3c(O)c2C(=O)[C@H]1OC1CC(OC2CC(OC3CC(C)(O)C(O)C(C)O3)C(O)C(C)O2)C(O)C(C)O1)C(C)C (some centres not stated) , is recorded growth strictly lower than 40%?
true

Given COCC(=O)NC/C=C/c1ccc2ncnc(Nc3ccc(Oc4ccc(C)nc4)c(C)c3)c2c1 , is recorded growth strictly lower than 40%?
true

Given CCN1CCN(Cc2ccc(Cc3ncc(F)c(-c4cc(F)c5nc(C)n(C(C)C)c5c4)n3)nc2)CC1 , is recorded growth strictly lower than 40%?
false

Given CNC(=O)c1cc(Oc2cccc3nc(Nc4ccc(Cl)c(F)c4)ccc23)ccn1 , is recorded growth strictly lower than 40%?
false

Given COc1ccc(-c2cnc(-c3ccc(Cl)cc3)[nH]2)cc1OC , is recorded growth strictly lower than 40%?
false

Given COc1cc(Nc2c(C#N)cnc3cc(OCCCN4CCN(C)CC4)c(OC)cc23)c(Cl)cc1Cl , is recorded growth strictly lower than 40%?
true

Given Cc1c(N)ccc(-c2ccc(N)c(C)c2S(=O)(=O)O)c1S(=O)(=O)O , is recorded growth strictly lower than 40%?
false

Given COc1cccc2cc(-c3nc(C4CCC(C(=O)O)CC4)n4ncnc(N)c34)[nH]c12 (configuration not stated) , is recorded growth strictly lower than 40%?
true

* * *

tested on: OVCAR-5 ovarian; test: NCI-60 one-dose screen, 48 h; details: 10 µM unless noted
About 83,000 compounds went through this panel and 20% of them were active in at least one assay; those are over-represented in the sample as a whole. Activity calls are given as the source filed them. How the source made its calls: active means growth percent below 10; inactive means the rest.
Outcome (select one): active, inactive

CCOc1cc2ncc(C#N)c(Nc3ccc(OCc4ccccn4)c(Cl)c3)c2cc1NC(=O)/C=C/CN(C)C | active
CN(C)C1CCN(C(=O)c2ccc(NC(=O)Nc3ccc(-c4nc(N5CCOCC5)nc(N5CCOCC5)n4)cc3)cc2)CC1 | active
Cn1c(Nc2ccc(C(F)(F)F)cc2)nc2cc(Oc3ccnc(-c4ncc(C(F)(F)F)[nH]4)c3)ccc21 | inactive
COc1cc(-c2nc(C(=O)Nc3ccc(C)cc3)nn2-c2ccc(F)c(F)c2)cc(OC)c1OC | inactive
CCc1nc(C(N)=O)c(Nc2ccc(N3CCC(N4CCN(C)CC4)CC3)c(OC)c2)nc1NC1CCOCC1 | inactive

# fetch the recorded call for Cc1ccccc1Nc1nc2nonc2nc1Nc1cccc(C)c1C here
inactive

# fetch the recorded call for CCc1nc2cc(F)c(/C=C/C(=O)NO)cc2c(=O)n1CCc1ccccc1 here
inactive

# fetch the recorded call for C[C@@]1(C(=O)Nc2ccc(F)nc2)CCCN1c1nc(Nc2cc(C3CC3)[nH]n2)c2cccn2n1 here
inactive

# fetch the recorded call for CCCCn1c(C)nc2ccc(Nc3nc(N4CCN(C)CC4)nc4nc[nH]c34)cc21 here
inactive

* * *

test system: MOLT-4 leukemia; assay: NCI-60 one-dose screen, 48 h (100 = growth as untreated, 0 = no growth, -100 = all killed); conditions: 10 µM unless noted
About 83,000 compounds went through this panel and 20% of them were active in at least one assay; those are over-represented in the sample as a whole.
readoutType: growth (%)
Use % as the unit, but write only the number.

Solved entries (count: 3):
Cn1ccnc1C(=O)/C=C/c1ccc(CC(=O)Nc2ccc(Br)cc2)cc1 | 2.44
CCc1nc2ccc(Cc3ccc(C(=O)NO)cc3)cc2c(=O)n1CCc1ccccc1 | -18.7
CC(=O)C(C(C)=O)C(c1ccccc1)C(C(C)=O)C(C)=O | 104

Next:
growth measured on Cc1cc(Nc2cc(N3CCN(C)CC3)nc(/C=C/c3ccccc3)n2)n[nH]1 = -5.35

* * *

Test system: IGROV1 ovarian
Assay: NCI-60 one-dose screen, 48 h (100 = growth as untreated, 0 = no growth, -100 = all killed)
Conditions: 10 µM unless noted
Procedure: Growth inhibition of the IGROV1 human tumor cell line is measured as a screen for anti-cancer activity. Cells are grown in 96 well plates and exposed to the test compound for 48 hours. Compounds are tested at a single concentration, which is 10^-5 M for most compounds. The reported endpoint is percent growth (GI% or GIPRCNT), where numbers from 0 - 100% represent growth inhibition, and numbers from -100% - 0 represent cell death. For example, a value of 40 represents 60% growth inhibition. […]
The panel holds about 83,000 compounds, 20% with a hit somewhere; the sample as a whole holds those more often. Active and inactive are the calls of the source. The calls were made as follows: active = growth percent below 10; inactive = the rest.
readoutType: growth

Solved entries (count: 3):
Cn1ccnc1C(=O)/C=C/c1ccc(CC(=O)Nc2ccc(S(F)(F)(F)(F)F)cc2)cc1 | -17.5% (active)
COc1ccc(Cc2cc(-c3ccccc3C)n[nH]c2=O)cc1 | 53.7% (inactive)
CCc1nc2cc(/C=C/C(=O)NO)ccc2c(=O)n1CCc1ccc(F)cc1 | 28% (inactive)

growth measured on COc1ccc(/C(C)=C(\c2ccc(Cl)cc2)c2ccc(OCCN3CCCCCC3)cc2)cc1 = 67.1% (inactive)

growth measured on COc1ccc(Br)cc1NC(=O)Nc1cccc2c1ccn2Cc1ccnc(N)c1 = 36.3% (inactive)

growth measured on CCc1nc2ccc(Cc3ccc(C(=O)NO)cc3)cc2c(=O)n1CCc1ccccc1 = -56.7% (active)

growth measured on C=C1C(=O)O[C@H]2[C@H]1CC/C(C=Nc1c(N)cc(C(F)(F)F)cc1C(F)(F)F)=C\CC[C@@]1(C)O[C@@H]21 = -46.3% (active)

growth measured on C#Cc1cccc(Nc2ncnc3cc(OC)c(OCCCCCCC(=O)NO)cc23)c1 = -41.3% (active)
